- assayedTarget: Rhesus PDE2A3 (Macaca mulatta, UniProt B3VTJ2)
- Construct: made in house; host or cells: AD293 cells, transient transfection; supernatant of sonicated lysate
- Sequence (B3VTJ2 1-941): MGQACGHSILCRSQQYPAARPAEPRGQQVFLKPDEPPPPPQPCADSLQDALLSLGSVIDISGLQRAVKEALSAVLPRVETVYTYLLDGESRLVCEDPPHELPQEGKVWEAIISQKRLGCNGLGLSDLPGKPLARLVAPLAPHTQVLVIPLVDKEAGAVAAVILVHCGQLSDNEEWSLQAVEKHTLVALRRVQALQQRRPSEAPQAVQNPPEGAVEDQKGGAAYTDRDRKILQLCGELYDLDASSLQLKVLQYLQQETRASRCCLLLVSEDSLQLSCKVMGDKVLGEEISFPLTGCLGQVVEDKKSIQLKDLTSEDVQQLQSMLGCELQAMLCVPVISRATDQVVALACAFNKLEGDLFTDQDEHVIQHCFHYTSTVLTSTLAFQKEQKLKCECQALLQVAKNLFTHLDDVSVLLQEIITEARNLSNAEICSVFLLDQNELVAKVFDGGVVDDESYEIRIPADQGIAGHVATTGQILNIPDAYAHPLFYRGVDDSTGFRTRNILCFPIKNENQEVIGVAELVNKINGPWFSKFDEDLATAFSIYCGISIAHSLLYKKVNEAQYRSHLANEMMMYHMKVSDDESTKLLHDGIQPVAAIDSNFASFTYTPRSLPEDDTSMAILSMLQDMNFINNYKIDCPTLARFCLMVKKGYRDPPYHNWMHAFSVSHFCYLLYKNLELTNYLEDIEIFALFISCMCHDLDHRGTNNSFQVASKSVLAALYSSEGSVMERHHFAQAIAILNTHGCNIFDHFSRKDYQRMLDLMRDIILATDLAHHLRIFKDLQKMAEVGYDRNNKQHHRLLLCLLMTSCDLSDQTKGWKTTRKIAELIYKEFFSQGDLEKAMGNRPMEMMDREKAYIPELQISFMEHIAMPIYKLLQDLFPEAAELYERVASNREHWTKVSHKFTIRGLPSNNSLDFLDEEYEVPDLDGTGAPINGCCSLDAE
- assayProcedure: PDE2 fluorescence polarization (IMAP FP) inhibition assay, rhesus PDE2A3
- Format: biochemical, rhesus macaque
- testContext: Lab B; read-out: Rhesus PDE2 Ki (nM) Lab B
Criterion: Ki strictly less than 2 nM. Met: Criterion met. Not met: Criterion not met.

[[record]]
compound = "Cc1nc2c(c(C(C)O)nn2C(C)c2ccc(C(F)(F)F)cc2)c(=O)[nH]1 (centres unmarked)"
assayedtarget = "Rhesus PDE2A3 (Macaca mulatta, UniProt B3VTJ2)"
labelclass = "Criterion not met"

[[record]]
compound = "Cc1nc2c(c(CF)nn2C(C)c2ccc(CC(F)(F)F)cc2)c(=O)[nH]1 (single isomer, unassigned)"
assayedtarget = "Rhesus PDE2A3 (Macaca mulatta, UniProt B3VTJ2)"
labelclass = "Criterion met"

[[record]]
compound = "Cc1nc2c(c(C(F)(F)CO)nn2C(C)c2ccc(C(F)(F)F)cc2)c(=O)[nH]1 (single isomer, unassigned)"
assayedtarget = "Rhesus PDE2A3 (Macaca mulatta, UniProt B3VTJ2)"
labelclass = "Criterion met"

[[record]]
compound = "Cc1nc2c(c(CO)nn2C(c2ccc(C(F)(F)F)c(F)c2)C(C)C)c(=O)[nH]1 (single isomer, unassigned) [Example 86]"
assayedtarget = "Rhesus PDE2A3 (Macaca mulatta, UniProt B3VTJ2)"
labelclass = "Criterion not met"

[[record]]
compound = "COCc1nn(C(C)c2ccc(C(F)(F)F)cc2)c2nc(C)[nH]c(=O)c12 (single isomer, unassigned) [Example 278]"
assayedtarget = "Rhesus PDE2A3 (Macaca mulatta, UniProt B3VTJ2)"
labelclass = "Criterion not met"


====

- assayedTarget: Rhesus PDE2A3 (Macaca mulatta)
- Construct: made in house; host or cells: AD293 cells, transient transfection; supernatant of sonicated lysate
- assayProcedure: PDE2 fluorescence polarization (IMAP FP) inhibition assay, rhesus PDE2A3
- Format: biochemical, rhesus macaque
- testContext: Lab A; read-out: Rhesus PDE2 Ki (nM) Lab A
Collected Ki values appear next to each entry.
metric: Ki (nM)

[[record]]
molecule = "Cc1nc2c(c(C)nn2CC(=O)Nc2ccc(C(F)(F)F)cc2)c(=O)[nH]1 [Example 337]"
metric = "Ki"
comparator = ">"
observedvalue = 1000

[[record]]
molecule = "Cc1nc2c(c(C)nn2CC(O)c2ccc(C(F)(F)F)cc2)c(=O)[nH]1 (stereo not shown) [Example 335]"
metric = "Ki"
comparator = ">"
observedvalue = 1000

[[record]]
molecule = "Cc1nn(C(C)c2ccc(C(F)(F)F)cc2)c2nc(C3CCOCC3)[nH]c(=O)c12 (stereo not shown) [Example 55]"
metric = "Ki"
comparator = "="
observedvalue = 421

[[record]]
molecule = "Cc1nc2c(c(CO)nn2Cc2ccc(C(F)(F)F)cc2)c(=O)[nH]1 [Example 8]"
metric = "Ki"
comparator = "="
observedvalue = 192

[[record]]
molecule = "Cc1nc2c(c(CO)nn2C(C)c2ccc(OC(F)(F)F)cc2)c(=O)[nH]1 (stereo not shown) [Example 4]"
metric = "Ki"
comparator = "="
observedvalue = 3.8

[[record]]
molecule = "Cc1nc2c(c(C)nn2C(CCCc2ccccc2)c2sc(C)nc2C)c(=O)[nH]1 (stereo not shown) [Example 339]"
metric = "Ki"
comparator = "="
observedvalue = 292

[[record]]
molecule = "Cc1nc2c(c(C(O)C(F)(F)F)nn2C(C)c2ccc(C(F)(F)F)cc2)c(=O)[nH]1 (stereo not shown) [Example 327]"
metric = "Ki"
comparator = "="
observedvalue = 93

[[record]]
molecule = "COc1ccc(Cc2nc3c(c(C)nn3C(C)c3ccc(C(F)(F)F)cc3)c(=O)[nH]2)cc1OC (stereo not shown) [Example 44]"
metric = "Ki"
comparator = "="
observedvalue = 4.8

[[record]]
molecule = "COc1cccc(Cc2nc3c(c(C)nn3C(C)c3ccc(C(F)(F)F)cc3)c(=O)[nH]2)c1 (stereo not shown) [Example 45]"
metric = "Ki"
comparator = "="
observedvalue = 26

[[record]]
molecule = "Cc1nn(C(C)c2ccc(C(F)(F)F)cc2)c2nc(-c3cnc4ccccc4n3)[nH]c(=O)c12 (stereo not shown) [Example 50]"
metric = "Ki"
comparator = "="
observedvalue = 62

[[record]]
molecule = "Cc1nc2c(c(CF)nn2C(C)c2ccc(OC(F)(F)F)c(F)c2)c(=O)[nH]1 (single isomer, unassigned) [Example 216]"
metric = "Ki"
comparator = "="
observedvalue = 19

[[record]]
molecule = "Cc1nn(C(C)c2ccc(C(F)(F)F)cc2)c2nc(C3CC3)[nH]c(=O)c12 (stereo not shown) [Example 42]"
metric = "Ki"
comparator = "="
observedvalue = 58

[[record]]
molecule = "Cc1nc2c(c(CO)nn2C(C)c2ccc(OC(F)(F)F)c(F)c2)c(=O)[nH]1 (single isomer, unassigned) [Example 10]"
metric = "Ki"
comparator = "="
observedvalue = 39

[[record]]
molecule = "Cc1nc2c(c(C)nn2CC(C)(O)c2ccc(C(F)(F)F)cc2)c(=O)[nH]1 (stereo not shown) [Example 336]"
metric = "Ki"
comparator = ">"
observedvalue = 1000

[[record]]
molecule = "Cc1nn(C(C)c2ccc(C(F)(F)F)cc2)c2nc(CF)[nH]c(=O)c12 (stereo not shown) [Example 51]"
metric = "Ki"
comparator = "="
observedvalue = 79


====

The following molecules are shown together with reported Ki values.
- assayedTarget: human PDE2A1 (Homo sapiens, UniProt O00408)
- Construct: GST; purchased BPS Bioscience (San Diego, Calif.) 60020; host or cells: insect cells
- Sequence (O00408 1-920 isoform O00408-2): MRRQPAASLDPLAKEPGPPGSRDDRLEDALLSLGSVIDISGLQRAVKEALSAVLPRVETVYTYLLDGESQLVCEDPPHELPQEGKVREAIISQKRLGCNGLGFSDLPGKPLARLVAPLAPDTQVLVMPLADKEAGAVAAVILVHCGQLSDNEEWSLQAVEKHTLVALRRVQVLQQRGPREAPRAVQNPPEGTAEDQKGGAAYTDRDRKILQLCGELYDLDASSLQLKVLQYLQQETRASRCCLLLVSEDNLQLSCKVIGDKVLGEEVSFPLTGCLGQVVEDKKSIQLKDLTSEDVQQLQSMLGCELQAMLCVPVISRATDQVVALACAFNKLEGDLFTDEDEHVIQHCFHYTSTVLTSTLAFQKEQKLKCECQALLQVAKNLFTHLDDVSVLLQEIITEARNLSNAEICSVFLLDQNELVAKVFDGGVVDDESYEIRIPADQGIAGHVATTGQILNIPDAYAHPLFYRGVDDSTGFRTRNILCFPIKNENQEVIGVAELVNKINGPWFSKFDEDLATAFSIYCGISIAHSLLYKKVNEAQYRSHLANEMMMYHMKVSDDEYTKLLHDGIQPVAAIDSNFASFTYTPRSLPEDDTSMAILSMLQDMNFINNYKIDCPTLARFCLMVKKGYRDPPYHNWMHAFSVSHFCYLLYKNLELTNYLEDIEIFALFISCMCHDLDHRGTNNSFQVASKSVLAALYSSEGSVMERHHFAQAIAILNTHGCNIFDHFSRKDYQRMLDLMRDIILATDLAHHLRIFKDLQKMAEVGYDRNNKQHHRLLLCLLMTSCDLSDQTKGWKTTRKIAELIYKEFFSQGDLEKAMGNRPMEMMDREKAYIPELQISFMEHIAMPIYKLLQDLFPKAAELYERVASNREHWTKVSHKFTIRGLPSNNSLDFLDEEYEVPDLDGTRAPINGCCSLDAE
- assayProcedure: IMAP FP PDE assay, human PDE2A1
- Type: biochemical
- testContext: Lab A; read-out: Human PDE2 Ki (nM) Lab A
metric: Ki

[[record]]
molecule = "CCC(CCCc1ccccc1)n1nc(C)c2c(=O)[nH]c(C)nc21 (centres unmarked)"
metric = "Ki"
observedvalue = "73 nM"

[[record]]
molecule = "Cc1nc2c(c(CCl)nn2C(c2ccc(C(F)(F)F)cc2)C2CC2)c(=O)[nH]1 (centres unmarked)"
metric = "Ki"
observedvalue = "0.27 nM"

[[record]]
molecule = "Cc1nn(C(C)c2ccc(C(F)(F)F)cc2)c2nc(-c3ccco3)[nH]c(=O)c12 (centres unmarked)"
metric = "Ki"
observedvalue = "5.4 nM"

[[record]]
molecule = "Cc1nn(C(C)c2ccc(C(F)(F)F)cc2)c2nc(CF)[nH]c(=O)c12 (centres unmarked)"
metric = "Ki"
observedvalue = "50 nM"

[[record]]
molecule = "Cc1nc2c(c(C(F)F)nn2C(C)c2ccc(C(F)(F)F)cc2)c(=O)[nH]1 (centres unmarked)"
metric = "Ki"
observedvalue = "~5.9 nM"

[[record]]
molecule = "COc1ccc(Cc2nc3c(c(CF)nn3C(C)c3ccc(C(F)(F)F)cc3)c(=O)[nH]2)cc1OC (single isomer, unassigned) [Example 223]"
metric = "Ki"
observedvalue = "12 nM"

[[record]]
molecule = "Cc1ccc(C(C)n2nc(CF)c3c(=O)[nH]c(C)nc32)cc1 (centres unmarked)"
metric = "Ki"
observedvalue = "8.3 nM"

[[record]]
molecule = "Cc1nc2c(c(C)nn2C(C)c2ccc(C(F)(F)F)cc2)c(=O)[nH]1 (single isomer, unassigned) [Example 36]"
metric = "Ki"
observedvalue = "428 nM"


====

Reported values of Ki for individual entries
- assayedTarget: Rhesus PDE2A3 (Macaca mulatta)
- Construct: made in house; host or cells: AD293 cells, transient transfection; supernatant of sonicated lysate
- assayProcedure: PDE2 fluorescence polarization (IMAP FP) inhibition assay, rhesus PDE2A3
- Assay type: biochemical, rhesus macaque
- testContext: Lab A; read-out: Rhesus PDE2 Ki (nM) Lab A
metric: Ki (nM)

[[record]]
molecule = "COCCc1nc2c(c(C)nn2C(C)c2ccc(C(F)(F)F)cc2)c(=O)[nH]1 (stereo not shown)"
comparator = "="
observedvalue = 267

[[record]]
molecule = "Cc1nc2c(c(C(F)F)nn2C(C)c2ccc(C(F)(F)F)cc2)c(=O)[nH]1 (stereo not shown)"
comparator = "="
observedvalue = 6.7

[[record]]
molecule = "Cc1nc2c(c(CCl)nn2C(c2ccc(C(F)(F)F)cc2)C2CC2)c(=O)[nH]1 (stereo not shown)"
comparator = "="
observedvalue = 0.47

[[record]]
molecule = "Cc1nc2c(c(C)nn2C(C)C(=O)Nc2ccc(C(F)(F)F)cc2)c(=O)[nH]1 (stereo not shown)"
comparator = ">"
observedvalue = 1000

[[record]]
molecule = "Cc1ccc(C(C)n2nc(CO)c3c(=O)[nH]c(C)nc32)cc1 (stereo not shown)"
comparator = "="
observedvalue = 26

[[record]]
molecule = "Cc1nc2c(c(CF)nn2C(C)c2ccc(OC(F)(F)F)cc2)c(=O)[nH]1 (single isomer, unassigned) [Example 207]"
comparator = "="
observedvalue = 0.46

[[record]]
molecule = "COCc1nc2c(c(C)nn2C(C)c2ccc(C(F)(F)F)cc2)c(=O)[nH]1 (stereo not shown)"
comparator = "="
observedvalue = 36

[[record]]
molecule = "Cc1nc2c(c(CF)nn2C(c2ccc(C(F)(F)F)cc2)C(F)(F)F)c(=O)[nH]1 (stereo not shown)"
comparator = "="
observedvalue = 1.4

[[record]]
molecule = "Cc1nc2c(c(CO)nn2C(C)(C)c2ccc(C(F)(F)F)cc2)c(=O)[nH]1"
comparator = "="
observedvalue = 54

[[record]]
molecule = "Cc1nc2c(c(CO)nn2C(C)c2ccc(C3CC3)cc2)c(=O)[nH]1 (stereo not shown)"
comparator = "="
observedvalue = 1.8

[[record]]
molecule = "Cc1nn(C(C)c2ccc(C(F)(F)F)cc2)c2nc(C(C)O)[nH]c(=O)c12 (stereo not shown)"
comparator = "="
observedvalue = 583

[[record]]
molecule = "Cc1nc2c(c(C(C)(C)O)nn2C(C)c2ccc(C(F)(F)F)cc2)c(=O)[nH]1 (stereo not shown)"
comparator = "="
observedvalue = 134

[[record]]
molecule = "Cc1nc2c(c(CO)nn2C(C)c2ccc(C(F)(F)F)cc2)c(=O)[nH]1 (single isomer, unassigned) [Example 27]"
comparator = "="
observedvalue = 2

[[record]]
molecule = "CCC(CCCc1ccccc1)n1nc(C)c2c(=O)[nH]c(C)nc21 (stereo not shown)"
comparator = "="
observedvalue = 113

[[record]]
molecule = "Cc1nc(-c2nc3c(c(C)nn3C(C)c3ccc(C(F)(F)F)cc3)c(=O)[nH]2)c(C)o1 (stereo not shown)"
comparator = "="
observedvalue = 32

[[record]]
molecule = "Cc1nc2c(c(CO)nn2C(C)c2ccc(C(F)(F)F)c(F)c2)c(=O)[nH]1 (single isomer, unassigned) [Example 13]"
comparator = "="
observedvalue = 1.3

